Measured IC50 accompanies every entry in the list below.
System: B cell activation as measured by CD69 expression in Human whole blood
Experiment: Inhibition of B cell activation as measured by CD69 expression in Human whole blood (flow cytometry)
Assay type: cell-based
Conditions: heparinized human whole blood, anti-IgD antibody 30 µg/mL, 4 hours, CD69 positive cells among CD20 B cells
A complete answer gives the number followed by the unit.

Take a look at these entries with their results.
| compoundSmiles | targetOrSystem | IC50 |
| --- | --- | --- |
| O=C1c2c(F)cc(C3CC3)cc2OCCN1c1cc(F)cc(-c2ccnc3[nH]c(-c4ccc(CN5CCN(CC(F)F)CC5)cn4)cc23)c1CO | B cell activation as measured by CD69 expression in Human whole blood | 54.2 nM |
| O=C1c2c(F)cc(C3CC3)cc2OCCN1c1cc(F)cc(-c2ccnc3[nH]c(C4=CCN(C5COC5)CC4)cc23)c1CO | B cell activation as measured by CD69 expression in Human whole blood | 124 nM |
| O=C1c2c(F)cc(C3CC3)cc2OCCN1c1cc(F)cc(-c2ccnc3[nH]c(-c4ccc(CN5CCN(C6COC6)CC5)cn4)cc23)c1CO | B cell activation as measured by CD69 expression in Human whole blood | 16.5 nM |

API: the following record is the query input.
[ask] Quick one: IC50 of O=C1c2c(F)cc(C3CC3)cc2OCCN1c1cc(F)cc(-c2ccnc3[nH]c(-c4ccc(CN5CCN(CC(F)(F)F)CC5)cn4)cc23)c1CO ?
[reply] 55.9 nM

---

Target: Recombinant Human Bruton's tyrosine kinase (Btk) (Homo sapiens, UniProt Q06187)
Construct: Full length human BTK (hBTK, Genbank#NM_000061.2) was cloned into pFastBac-HTB vector; 6XHis (N); made in house; host or cells: Sf9 cells (Bac-to-Bac baculovirus expression system)
Sequence (Q06187 whole entry): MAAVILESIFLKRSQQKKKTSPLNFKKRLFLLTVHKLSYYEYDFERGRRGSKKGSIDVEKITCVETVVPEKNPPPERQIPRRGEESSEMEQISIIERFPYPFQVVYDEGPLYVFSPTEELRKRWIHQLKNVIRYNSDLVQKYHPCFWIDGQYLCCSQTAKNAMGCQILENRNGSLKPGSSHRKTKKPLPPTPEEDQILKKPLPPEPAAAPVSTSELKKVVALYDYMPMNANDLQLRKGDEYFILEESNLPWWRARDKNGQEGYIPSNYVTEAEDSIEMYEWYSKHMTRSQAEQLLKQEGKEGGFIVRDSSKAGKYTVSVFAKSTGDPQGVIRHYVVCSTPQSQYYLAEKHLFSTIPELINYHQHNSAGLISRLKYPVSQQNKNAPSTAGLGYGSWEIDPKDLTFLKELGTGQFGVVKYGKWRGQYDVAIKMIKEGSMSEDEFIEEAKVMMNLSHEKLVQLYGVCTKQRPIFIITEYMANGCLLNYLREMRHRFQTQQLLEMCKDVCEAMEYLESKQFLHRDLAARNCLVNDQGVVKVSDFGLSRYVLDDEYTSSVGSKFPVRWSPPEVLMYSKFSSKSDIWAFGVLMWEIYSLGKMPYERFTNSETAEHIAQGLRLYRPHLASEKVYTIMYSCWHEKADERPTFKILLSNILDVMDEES
Assay: Recombinant Human Bruton's tyrosine kinase (Btk) inhibition assay (HTRF KinEASE-TK)
Format: biochemical
Conditions: 20 ng/ml rhBtk, 77 µM ATP (KM), 1 µM TK-Biotin Substrate, 90 minutes; read-out: IC50 (nM) in recombinant hBTK assay
measuredParameter: IC50 (nM)
Give just the numeric value; nM need not be written.

Take a look at these entries with their results.
| compoundSmiles | targetOrSystem | IC50, nM |
| --- | --- | --- |
| O=C1c2c(F)cc(C3CC3)cc2OCCN1c1cc(F)cc(-c2ccnc3[nH]c(-c4ccc(OC5CCN(C6COC6)CC5)cn4)cc23)c1CO | Recombinant Human Bruton's tyrosine kinase (Btk) (Homo sapiens, UniProt Q06187) | 1.15 |
| O=C1c2c(F)cc(C3CC3)cc2OCCN1c1cc(F)cc(-c2ccnc3[nH]c(C4=CCN(C5COC5)CC4)cc23)c1CO | Recombinant Human Bruton's tyrosine kinase (Btk) (Homo sapiens, UniProt Q06187) | 1.3 |

[ask] Quick one: IC50 of O=C1c2ccc(C3CC3)cc2OCCN1c1cc(F)cc(-c2ccnc3[nH]c(C4=CCN(C5COC5)CC4)cc23)c1CO ?
[reply] 2.5

---

Target: Recombinant Human Bruton's tyrosine kinase (Btk) (Homo sapiens, UniProt Q06187)
Construct: Full length human BTK (hBTK, Genbank#NM_000061.2) was cloned into pFastBac-HTB vector; 6XHis (N); made in house; host or cells: Sf9 cells (Bac-to-Bac baculovirus expression system)
Assay: Recombinant Human Bruton's tyrosine kinase (Btk) inhibition assay (HTRF KinEASE-TK)
Assay type: biochemical
Conditions: 20 ng/ml rhBtk, 77 µM ATP (KM), 1 µM TK-Biotin Substrate, 90 minutes; read-out: IC50 (nM) in recombinant hBTK assay
Measured IC50 accompanies every entry in the list below.
Give just the numeric value; nM need not be written.

| compound | targetOrSystem | measuredParameter | unitsText | resultValue |
| --- | --- | --- | --- | --- |
| O=C1c2c(F)cc(C3CC3)cc2OCCN1c1cc(F)cc(-c2ccnc3[nH]c(-c4ccc(CN5CCOCC5)cn4)cc23)c1CO [Example 4] | Recombinant Human Bruton's tyrosine kinase (Btk) (Homo sapiens, UniProt Q06187) | IC50 | nM | 0.55 |
| O=C1c2c(F)cc(C3CC3)cc2OCCN1c1cc(F)cc(-c2ccnc3[nH]c(-c4ccc(CN5CCN(CC(F)(F)F)CC5)cn4)cc23)c1CO [Example 2] | Recombinant Human Bruton's tyrosine kinase (Btk) (Homo sapiens, UniProt Q06187) | IC50 | nM | 1.9 |
| C[C@@H]1CN(Cc2ccc(-c3cc4c(-c5cc(F)cc(N6CCOc7cc(C8CC8)cc(F)c7C6=O)c5CO)ccnc4[nH]3)nc2)CCN1CC(F)F [Example 7] | Recombinant Human Bruton's tyrosine kinase (Btk) (Homo sapiens, UniProt Q06187) | IC50 | nM | 1.8 |

API: the following record is the query input.
[ask] Quick one: IC50 of CC(C)(O)CN1CC=C(c2cc3c(-c4cc(F)cc(N5CCOc6cc(C7CC7)ccc6C5=O)c4CO)ccnc3[nH]2)CC1 [Example 10] ?
[reply] 4
